experimentalTarget: human KOR (Homo sapiens)
assayProtocol: [35S]GTPγS binding assay (G protein activation), CHO-hKOR cell membranes
Format: biochemical
measurementType: pEC50
Would you please state pEC50, meaning minus log10 of the concentration in mol/L, as a bare number?

input: Please indicate pEC50 recorded for Cc1cc2n(n1)C1(CCN(C(=O)c3cccc(F)c3)CC1)CC(=O)N2CC1CC1
output: 6.07

input: Please report the measured pEC50 for Cc1cc2n(n1)C1(CCN(C(=O)c3ccc(Cl)cc3)CC1)CC(=O)N2CC1CC1
output: 6.74

====

Task for the reader: assign each of the following molecules its reported pKi.
Scale: negative log10 of molar concentration, which is what pKi denotes.

input: Answer with pKi of Cc1cc2n(n1)C1(CCN(C(=O)c3ccc(Cl)cc3)CC1)CC(=O)N2CC1CC1 measured for human KOR (Homo sapiens, UniProt P41145).
output: 6.37

input: Give measured pKi for Cc1cc2n(n1)C1(CCN(C(=O)c3cccc(F)c3)CC1)CC(=O)N2CC1CC1 (human KOR (Homo sapiens, UniProt P41145)).
output: 7.16
